Assay: yeast display, Sf9 membrane polyspecificity reagent, FACS + sequencing; frameworks hold sequencing errors
Measured parameter: polyreactivity (PSR sort gate)

QVQLVESGGGLVQAGRSLRLSCAASGFPFYQYAMGWYRQAPGQERELVAAITWSRGDTYYADSVKGRFTISRDNAKNTVYLQMNSLKPEDSAVFNCNADDRPRGPYYDSFDYRGDYWGQGTQVTVSS ... low polyreactivity
QVQLVESGGGIVQAGGSLRLSCAASGRTLISYAMGWYRQAPGKERELVAAISWGGSSTYYADSVKWRFTISRDNAKNTVYLQRNSLKPEDTAVYYCNTVYYYWGKWRGTYDYWGLGTQVTVSS ... high polyreactivity
QVQLVESGGGLVQAGGSLRLSCASSGITFYVYAMGWYRQAPGKERELVASISWNGGRTYYADSVKGRFTISRDNAKNTVYLQMNSLKPEDTAVYYCAARAYSYWSGLDYWGQGTQVTVSS ... high polyreactivity
QVQLVESGGGLVQAGGSLRLSCAASGFTFIRNAMGWYRQAPGKERELVAAISRSGGSTYYADSVKGRFTISRDNAKKTVYLQMNSQKPEDTAVYYCAVTLYLKWQGGAYDYWGQGTQVTVSS ... low polyreactivity
QVQLVESGGGLVHAGGSLRLSCAASGSILARYARGWYRQEPGKERELVAAISSRGGSTYYADSVKGRFTISRDYAKNTVYLQMNSLKPEDTAVYYCAASVYLQVEYDYWGQGTQVTVSS ... low polyreactivity

Query :: // returns reported polyreactivity (PSR sort gate) for input `QVQLVESGGGIVQAGGSLRLSCAASGGTFHYYAMGWYRQAPGKERELVAAINRSGDSTYYADSVKGRFTISRDNSKNTVYLQMNSLKPEDTAVYYCAVSYYGADGNPFPHDYWGQGTQVTVSS`
Result :: low polyreactivity

Query :: // returns reported polyreactivity (PSR sort gate) for input `QVQHVESGGGLDQAGGSLRLSCAASGSIFNGYAMGWYRQAPGKERELVADIRSGGSTYYADSVKGRFTISRDNAKNTVYLQMNSLKPEDTAVYYCAGDTITDGYDYWGQGTQVTVSS`
Result :: low polyreactivity

Query :: // returns reported polyreactivity (PSR sort gate) for input `QVQLVESGGGLVQAGGSLRLSCAASGSILGYYAMGWYRQAPGKERELVAAISWSGGRTYYADSVKGRFTISRDNAKNTVYLQMNSLKPEDTAVYYCNARWRSGPRAYDYWGQGTQVTVSS`
Result :: high polyreactivity

Query :: // returns reported polyreactivity (PSR sort gate) for input `QVQLVESGGGLVQAGGSLRLSCAASGRTFYYYAMGWYRQAPGKEREFVASITWRGGRTYYADSVKGRFTISRDNAKNTVYLQMNSLKPEDTAVYYCAADGSYAIGGYGYWGQGTQVTVSS`
Result :: high polyreactivity

Query :: // returns reported polyreactivity (PSR sort gate) for input `QVQLVESGVGLVQARGSLRLSCASSGSILIYNAMGWYRQAPGKVRELVAGISRRGDSTYYADSVKGRFTISRDNAKKTVYLQMNSLKPEDTAVYYCAALGKYIVAWSGDYWGQGTQVTVSS`
Result :: low polyreactivity
